Recorded values, source ChEMBL document CHEMBL4020801.

# Test system: WI-38
# assayProcedure: Cytotoxicity against human WI38 cells assessed as decrease in cell viability after 72 hrs by WST8 assay
# Assay type: cell-based
# conditionInfo: WI-38, 72 h
IC50 values for the compounds below.

structureassmiles=C=C1CCC[C@@H]2[C@@](C)(Cc3cc(C(=O)OC)c(O)c(OC)c3O)[C@H](C)CC[C@@]12C measuredresult="> 50 µM"

Shifting focus to the compound that follows.
-- ask Report measured IC50; entry is C=C1CCC[C@@H]2[C@@](C)(Cc3cc(C(=O)OC)cc(O)c3O)[C@H](C)CC[C@@]12C
-- reply > 50 µM

----------
# Test system: WI-38
# assayProcedure: Cytotoxicity against human WI38 cells assessed as decrease in cell viability after 72 hrs by WST8 assay
# Assay type: cell-based
# conditionInfo: WI-38, 72 h
outcomeMeasure: pIC50
Scale: negative log10 of molar concentration, which is what pIC50 denotes.

Reference set, count: 2
structureassmiles=C=C1CCC[C@H]2[C@](C)(CC3=C(O)C(=O)C=C(NCCc4ccccc4)C3=O)[C@@H](C)CC[C@]12C targetorsystem=WI-38 outcomemeasure=pIC50 measuredresult=5.52
structureassmiles=C=C1CCC[C@@H]2[C@@](C=O)(Cc3cc(C(=O)OC)c(O)c(OC)c3O)[C@H](C)CC[C@@]12C targetorsystem=WI-38 outcomemeasure=pIC50 measuredresult=5.06

-- ask Report measured pIC50; entry is C=C1CCC[C@H]2[C@](C)(CC3=C(O)C(=O)C=C(NCC(C)C)C3=O)[C@@H](C)CC[C@]12C
-- reply 5.46

----------
pIC50 values for the molecules below.
# Test system: WI-38
# assayProcedure: Cytotoxicity against human WI38 cells assessed as decrease in cell viability after 72 hrs by WST8 assay
# Format: cell-based
# conditionInfo: WI-38, 72 h
pIC50: −log10 of the molar value.

Reference set, count: 2
structureassmiles=C=C1CCC[C@@H]2[C@@](C=O)(Cc3cc(C(=O)OC)cc(OC)c3O)[C@H](C)CC[C@@]12C measuredresult="< 4.30"
structureassmiles=C=C1CCC[C@@H]2[C@@](CO)(Cc3cc(C(=O)OC)cc(OC)c3O)[C@H](C)CC[C@@]12C measuredresult="< 4.30"

Shifting focus to the molecule that follows.
-- ask Report measured pIC50; entry is C=C1CCC[C@@H]2[C@@](C)(Cc3cc(C(=O)OC)cc(OC)c3O)[C@H](C)CC[C@@]12C
-- reply < 4.30
